Entries and their GI50 values follow.
System: MDA-MB-468 breast
Assay: NCI tumour cell line growth inhibition, 48 h
measured endpoint: GI50

>>> recorded_value("O=C1OCC2=C1C(c1cccc(C(F)(F)F)c1)c1cc3c(cc1N2CCO)OCO3 (centres undefined)")
"0.244 µM"
>>> recorded_value("COc1cc(OC)cc(-c2ccc(-c3ccc(C(=N)N)s3)s2)c1")
"0.304 µM"
>>> recorded_value("COc1cccc2c1C(=O)c1c(O)c3c(c(O)c1C2=O)C[C@@](O)(C(=O)CO)C[C@@H]3OC1CC(OC(C)=O)C(OC(C)=O)C(C)O1 (some centres undefined)")
"0.53 µM"
>>> recorded_value("NC(N)=Nc1ccc(Oc2cccc(Nc3ccc(Cl)c(C(F)(F)F)c3)c2)cc1")
"1.48 µM"
>>> recorded_value("N=C(N)c1ccc(-c2ccc(-c3cncc4ccccc34)s2)cc1F")
"1.28 µM"
>>> recorded_value("COc1ccc(Cn2cc3c(c2-c2cc(OC)c(OC)c(OC)c2)CCCc2cnoc2-3)cc1N")
"0.54 µM"
>>> recorded_value("CN(C)CCN1C(=O)c2cccc3c(N)ccc(c23)C1=O")
"8.4 µM"
>>> recorded_value("COc1ccc(C2=CC(c3ccc(Oc4ccnc5cc(Cl)ccc45)c(OC)c3)c3c(nc(OC)[nH]c3=O)N2)cc1 (centres undefined)")
"5.22 µM"
>>> recorded_value("NC(=O)c1ccc2nc(-c3ccc(C4(N)CCC4)cc3)c(-c3ccccc3)n2n1")
"0.169 µM"
>>> recorded_value("O=C(CCc1ccco1)NC1CCN(CC2(c3ccc(Cl)cc3)CCC2)CC1")
"5.28 µM"
>>> recorded_value("COc1cc(-c2cc(-c3nc4cc(Cl)c(Cl)cc4[nH]3)[nH]n2)cc(OC)c1OC")
"3.49 µM"
>>> recorded_value("O=[N+]([O-])c1cccc(/C=C/c2ccccn2)c1")
"2.25 µM"
>>> recorded_value("COc1ccc2[nH]c(-c3ccccc3)c(C=C(C#N)C#N)c2c1")
"2.13 µM"
>>> recorded_value("C/C(=N\\Nc1ccc(S(N)(=O)=O)cc1)c1ccc(N=Nc2c(Nc3ccccc3)[nH][nH]c2=O)cc1")
"1.4 µM"

---

Tested on: MDA-MB-468 breast
Assay: NCI tumour cell line growth inhibition, 48 h
measured endpoint: TGI (µM)

>>> recorded_value("COc1ccc2[nH]c(-c3ccccc3)c(C=C(C#N)C#N)c2c1")
49.9
>>> recorded_value("CC(C)(C)OC(=O)N1CC(Cn2cc(C(F)(F)F)c3c(Cl)ncnc32)C1")
3.87
>>> recorded_value("COc1cc(OC)cc(-c2ccc(-c3ccc(C(=N)N)s3)s2)c1")
1.16
>>> recorded_value("O=C1c2ccc3c4c(ccc(c24)C(=O)N1CCCNCc1ccccc1)C(=O)N(CCCNCc1ccccc1)C3=O")
0.285
>>> recorded_value("O=C(C[C@@]1(O)C(=O)Nc2c(Cl)ccc(Cl)c21)c1ccc(C2CC2)cc1")
18.6
>>> recorded_value("COc1ccc2c(c1)C(=O)c1c-2c(OCCN(C)C)nc2cc(OC)ccc12")
8.57
>>> recorded_value("COc1cc(-c2nc3ccccc3[nH]2)ccc1OCC(=O)N=Nc1c(O)[nH]c2ccc(Cl)cc12")
3.45
>>> recorded_value("O=C1OCC2=C1C(c1cccc(C(F)(F)F)c1)c1cc3c(cc1N2CCO)OCO3 (stereo not given)")
2.16
>>> recorded_value("CC[C@]12C=CCN3CC[C@]4(C(=C(C(=O)OC)C1)Nc1cc(OC)c([C@@H]5[C@H]6O[C@H]6[C@@]6(CC)CC(C(=O)OC)=C7Nc8cc(O)ccc8[C@@]78CCN5[C@@H]68)cc14)[C@@H]32")
7.28
>>> recorded_value("FC(F)(F)c1[nH]ncc1-c1nc2c(N3CCCCC3)cc3[nH]ncc3c2c2c1CCCC2")
2.45
>>> recorded_value("CCOC(=O)/C(=C/c1ccccc1)C(=O)c1ccccc1")
13.8
